Listed molecules paired with reported EC50
system: VEEV-TC83; assay: microbe, parasite or virus in culture; type: cell-based; conditions: Venezuelan equine encephalitis virus, HeLa, read-out: VEEV-TC83 EC50

{"molecule": "CC(C)CCNC(=O)[C@H](CC(C)C)NC(=O)[C@H]1O[C@@H]1C(=O)NCCCCO [NCGC00488906-01]", "testTarget": "VEEV-TC83", "EC50": "26.6 µM"}
{"molecule": "CC(C)CCNC(=O)[C@H](CC(C)C)NC(=O)[C@H]1O[C@@H]1C(=O)NCc1cccnc1 [NCGC00488907-01]", "testTarget": "VEEV-TC83", "EC50": "5.22 µM"}
{"molecule": "CC(C)CCNC(=O)[C@H](CC(C)C)NC(=O)[C@H]1O[C@@H]1C(=O)NCc1ccncc1 [NCGC00488908-01]", "testTarget": "VEEV-TC83", "EC50": "9.23 µM"}
{"molecule": "CC(C)CCNC(=O)[C@H](CC(C)C)NC(=O)[C@H]1O[C@@H]1C(=O)NCc1ccc(C#N)cc1 [NCGC00488904-01]", "testTarget": "VEEV-TC83", "EC50": "4.09 µM"}
{"molecule": "CCC(C)C(NC(=O)C1OC1C(=O)NC(CC(C)C)C(=O)NCCC(C)C)C(=O)N1CCCC1C(=O)OCc1ccccc1 (stereo not drawn) [NCGC00484087-01]", "testTarget": "VEEV-TC83", "EC50": "2.17 µM"}
{"molecule": "CC(C)CCNC(=O)[C@H](CC(C)C)NC(=O)[C@H]1O[C@@H]1C(=O)NCc1cccc(C#N)c1 [NCGC00488909-01]", "testTarget": "VEEV-TC83", "EC50": "1.48 µM"}

###

assay: in vitro; conditions: human

{"compound": "CC(C)CCNC(=O)[C@H](CC(C)C)NC(=O)[C@H]1O[C@@H]1C(=O)NCCCCO [NCGC00488906-01]", "CC50": "> 50 µM"}
{"compound": "CC(C)CCNC(=O)[C@H](CC(C)C)NC(=O)[C@H]1O[C@@H]1C(=O)NCc1cccc(C#N)c1 [NCGC00488909-01]", "CC50": "> 50 µM"}
{"compound": "CC(C)CCNC(=O)[C@H](CC(C)C)NC(=O)[C@H]1O[C@@H]1C(=O)NCc1ccncc1 [NCGC00488908-01]", "CC50": "> 50 µM"}
{"compound": "CC(C)CCNC(=O)[C@H](CC(C)C)NC(=O)[C@H]1O[C@@H]1C(=O)NCc1ccc(C#N)cc1 [NCGC00488904-01]", "CC50": "> 50 µM"}
{"compound": "CCC(C)C(NC(=O)C1OC1C(=O)NC(CC(C)C)C(=O)NCCC(C)C)C(=O)N1CCCC1C(=O)OCc1ccccc1 (stereo not drawn) [NCGC00484087-01]", "CC50": "> 50 µM"}
{"compound": "CC(C)CCNC(=O)[C@H](CC(C)C)NC(=O)[C@H]1O[C@@H]1C(=O)NCc1cccnc1 [NCGC00488907-01]", "CC50": "> 50 µM"}

###

pKi: −log10 of the molar value.
pKi, VEEV nsP2 protease (Venezuelan equine encephalitis virus, UniProt P27282), per-entry values.
experimentalReadout: pKi

{"compound": "CC(C)CCNC(=O)[C@H](CC(C)C)NC(=O)[C@H]1O[C@@H]1C(=O)NCc1cccc(C#N)c1 [NCGC00488909-01]", "measValue": 5.52}
{"compound": "CCCNC(=O)[C@H]1O[C@@H]1C(=O)N[C@H](C(=O)N1CCC[C@H]1C(=O)OC)[C@@H](C)CC [CA074me, CA074 methyl ester]", "measValue": 2.92}
{"compound": "CCC(C)C(NC(=O)C1OC1C(=O)NC(CC(C)C)C(=O)NCCC(C)C)C(=O)N1CCCC1C(=O)OCc1ccccc1 (stereo not shown) [NCGC00484087-01]", "measValue": 5.30}
{"compound": "CCOC(=O)[C@H]1O[C@@H]1C(=O)N[C@@H](CC(C)C)C(=O)NCCC(C)C [E64d]", "measValue": 4.40}

###

Listed compounds paired with reported EC50
tested on: VEEV-Trinidad; assay: microbe, parasite or virus in culture; format: cell-based; conditions: Venezuelan equine encephalitis virus, A549

{"compound": "CCC(C)C(NC(=O)C1OC1C(=O)NC(CC(C)C)C(=O)NCCC(C)C)C(=O)N1CCCC1C(=O)OCc1ccccc1 (centres unmarked)", "EC50": "8 µM"}
{"compound": "CC(C)CCNC(=O)[C@H](CC(C)C)NC(=O)[C@H]1O[C@@H]1C(=O)NCc1cccc(C#N)c1", "EC50": "1.8 µM"}
{"compound": "CC(C)CCNC(=O)[C@H](CC(C)C)NC(=O)[C@H]1O[C@@H]1C(=O)NCc1ccncc1", "EC50": "9.5 µM"}
{"compound": "CC(C)CCNC(=O)[C@H](CC(C)C)NC(=O)[C@H]1O[C@@H]1C(=O)NCCCCO", "EC50": "26 µM"}
{"compound": "CC(C)CCNC(=O)[C@H](CC(C)C)NC(=O)[C@H]1O[C@@H]1C(=O)NCc1ccc(C#N)cc1", "EC50": "4 µM"}

The reported numbers originate from paper PMC10385868.
